System: MOLT-4
Experiment: NCI tumour cell line growth inhibition, 48 h
The source made the active and inactive calls. Rule as the data show it: active = GI50 up to about 1.1 µM and inactive = higher.
Your reply should match one of these outcome classes. active, inactive

Given CCC(C)CNC1=C(NC(C)=O)C(=O)c2ccccc2C1=O (configuration not stated) , state the outcome it received in this test. inactive

Same question for Nc1ccn(C2OC(CO)C(O)C2(F)F)c(=O)n1 (configuration not stated) please. active

Same question for CC(C)(Cc1ccccc1)Cc1cc(O)ccc1O please. inactive

Same question for OCCSCc1cc2c(O)c(c1)Cc1cc(CSCCO)cc(c1O)Cc1cc(CSCCO)cc(c1O)Cc1cc(CSCCO)cc(c1O)C2 please. inactive

Same question for COc1ccc2c(-c3cc4ccccc4o3)cc(=O)oc2c1 please. inactive

Same question for CCOP(=O)(COCCn1nc(Br)c(=O)[nH]c1=O)OCC please. inactive

Same question for Cc1nc(N2N=C(c3ccc(Cl)cc3)CCC2=O)sc1[N+](=O)[O-] please. inactive

Same question for Cn1c(=O)sc2cc(C(=S)N3CCN(c4ccccc4)CC3)ccc21 please. inactive

Same question for Nc1ccc2c(=S)c3ccccc3[nH]c2c1 please. inactive

Same question for CC(NC1CCCC[C@H]1O)c1ccccc1 (some centres not stated) please. inactive

Same question for C=C1CC(O)C2C(=C)C(=O)OC2C2C(C)C(=O)CC12 (configuration not stated) please. inactive

Same question for CC(C)COC1Sc2ccccc2S1 please. inactive
